B1: EEHEE_rd4_0363 (parent)
chain: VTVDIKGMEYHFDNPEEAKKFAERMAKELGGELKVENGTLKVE

variants of: B1; assay: folding stability dG (cDNA display proteolysis); higher = more stable; conditions: PBS, room temperature

# VARIANT_STRING, folding stability dG (kcal/mol)
measured = [
    ("T2M", 1.71),
    ("G30S", 1.5),
    ("F12Q", -0.27),
    ("A26H", 0.962),
    ("E23H", 1.11),
    ("K41A", 1.09),
    ("G31T", 1.38),
    ("D13A", 1.95),
    ("V35F", 2.38),
    ("A18E", -0.431),
    ("A18I", -0.262),
    ("N37Y", 1.19),
    ("Y10D", -0.462),
    ("D4F", 3.35),
    ("M8D", 1.24),
    ("E36A", 1.74),
    ("V3A", 0.392),
    ("A18W", 0.824),
    ("T2A", 1.1),
    ("L40V", 1.35),
    ("V1N", 1.31),
    ("A22E", 0.571),
    ("G30K", 1.66),
    ("E32G", 1.4),
    ("G38C", 1.98),
    ("E23G", 0.124),
    ("E23Y", 1.5),
    ("V1D", 0.479),
    ("N37M", 1.3),
    ("K19Q", 2.17),
    ("E43C", 2.81),
    ("L40W", 2.28),
    ("E36V", 2.54),
    ("V3N", -0.005),
    ("L33R", 0.462),
    ("T2N", 1.1),
    ("V42G", 0.841),
    ("A26C", 2.06),
    ("F21V", -0.636),
    ("L33T", 1.13),
    ("R24L", 1.99),
    ("R24E", 1.99),
    ("A22R", 1.05),
    ("R24N", 1.55),
    ("I5D", 0.025),
    ("T2I", 2.37),
    ("K27Q", 2.09),
    ("I5M", 0.754),
    ("G7K", 0.294),
    ("Y10I", 1.05),
    ("E28C", 2.97),
    ("G7S", 0.507),
    ("A26D", 0.592),
    ("E9D", 0.904),
    ("K34F", 2),
    ("E32T", 2.81),
    ("G38A", 1.13),
    ("A22M", 1.39),
    ("K6M", 3.32),
]

// data source = the MegaScale stability set (Tsuboyama et al. 2023)
